Provenance of the data: paper PMC11073785

List of kon values.
Molecular target: T1, Spirochaeta thermophila YeeE (Spirochaeta thermophila, UniProt G0GAP6 1-328)
T1 construct: YeeE of Spirochaeta thermophila, residues 1-328, UniProt G0GAP6; Membrane protein, kept in 0.1% DDM; The His tag was removed with TEV(S219V) protease; also called StYeeE; TsuA; source: E. coli C41(DE3), purified from the membrane fraction in DDM (Ni-NTA, TEV cleavage, Superdex 200)
T1 sequence (looked up): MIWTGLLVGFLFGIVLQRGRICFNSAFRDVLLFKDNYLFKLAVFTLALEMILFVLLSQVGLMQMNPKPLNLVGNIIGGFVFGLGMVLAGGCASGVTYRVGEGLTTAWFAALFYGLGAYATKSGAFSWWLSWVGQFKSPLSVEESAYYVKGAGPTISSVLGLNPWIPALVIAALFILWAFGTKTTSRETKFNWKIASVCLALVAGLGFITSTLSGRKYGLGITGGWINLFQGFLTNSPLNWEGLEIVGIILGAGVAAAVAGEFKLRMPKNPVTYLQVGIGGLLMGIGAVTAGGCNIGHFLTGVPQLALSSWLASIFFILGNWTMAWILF
Experiment: BLI; StYeeD-His6 (4.82 μM) loaded on a Ni-NTA biosensor, 11.05 μM StYeeE in solution; Octet N1, room temperature; 20 mM Tris-HCl pH 8.0, 300 mM NaCl, 0.1% DDM, 1 mM β-ME; 120 s association, 120 s dissociation; local fitting; 3 measurements. WT was also run with 300 mM Na2SO4 (binding similar) or 300 mM Na2S2O3 (binding significantly decreased)
Details: both partners purified
PROPERTY MEASURED: kon (M⁻¹ s⁻¹)

- StYeeD(E63A), His6-tagged (natural protein, Spirochaeta thermophila, UniProt G0GAP7 1-80, looked up, YeeD of Spirochaeta thermophila, residues 1-80, UniProt G0GAP7, with E63A; source: E. coli C41(DE3), purified (Ni-NTA, Superdex 200)) MANYQVSKEIDVRGEVCPIPDVEAKRAVQSANDGEIILVRIDYPLSKERIPETVKKLGSEVLAIEEAAPGEWNIYIKVKK: 18000
- StYeeD(V39A), His6-tagged (natural protein, Spirochaeta thermophila, UniProt G0GAP7 1-80, looked up, YeeD of Spirochaeta thermophila, residues 1-80, UniProt G0GAP7, with V39A; source: E. coli C41(DE3), purified (Ni-NTA, Superdex 200)) MANYQVSKEIDVRGEVCPIPDVEAKRAVQSANDGEIILARIDYPLSKERIPETVKKLGSEVLEIEEAAPGEWNIYIKVKK: 5800
- StYeeD(E9A), His6-tagged (natural protein, Spirochaeta thermophila, UniProt G0GAP7 1-80, looked up, YeeD of Spirochaeta thermophila, residues 1-80, UniProt G0GAP7, with E9A; source: E. coli C41(DE3), purified (Ni-NTA, Superdex 200)) MANYQVSKAIDVRGEVCPIPDVEAKRAVQSANDGEIILVRIDYPLSKERIPETVKKLGSEVLEIEEAAPGEWNIYIKVKK: 6000
- StYeeD(L45A), His6-tagged (natural protein, Spirochaeta thermophila, UniProt G0GAP7 1-80, looked up, YeeD of Spirochaeta thermophila, residues 1-80, UniProt G0GAP7, with L45A; source: E. coli C41(DE3), purified (Ni-NTA, Superdex 200)) MANYQVSKEIDVRGEVCPIPDVEAKRAVQSANDGEIILVRIDYPASKERIPETVKKLGSEVLEIEEAAPGEWNIYIKVKK: 29000
- StYeeD(K8A), His6-tagged (natural protein, Spirochaeta thermophila, UniProt G0GAP7 1-80, looked up, YeeD of Spirochaeta thermophila, residues 1-80, UniProt G0GAP7, with K8A; source: E. coli C41(DE3), purified (Ni-NTA, Superdex 200)) MANYQVSAEIDVRGEVCPIPDVEAKRAVQSANDGEIILVRIDYPLSKERIPETVKKLGSEVLEIEEAAPGEWNIYIKVKK: 8900
- Spirochaeta thermophila YeeD (WT), His6-tagged (natural protein, UniProt G0GAP7 1-80, looked up, YeeD of Spirochaeta thermophila, residues 1-80, UniProt G0GAP7; 11.3 kDa with the tag; As purified, C17 is partly modified (mass spectrometry: -SH, -S-O2-/-S-S-, -S-SO3-); also called StYeeD; StYeeD(WT); source: E. coli C41(DE3), purified (Ni-NTA, Superdex 200)) MANYQVSKEIDVRGEVCPIPDVEAKRAVQSANDGEIILVRIDYPLSKERIPETVKKLGSEVLEIEEAAPGEWNIYIKVKK: 17000
- StYeeD(V16A), His6-tagged (natural protein, Spirochaeta thermophila, UniProt G0GAP7 1-80, looked up, YeeD of Spirochaeta thermophila, residues 1-80, UniProt G0GAP7, with V16A; source: E. coli C41(DE3), purified (Ni-NTA, Superdex 200)) MANYQVSKEIDVRGEACPIPDVEAKRAVQSANDGEIILVRIDYPLSKERIPETVKKLGSEVLEIEEAAPGEWNIYIKVKK: 17000
- StYeeD(E48A), His6-tagged (natural protein, Spirochaeta thermophila, UniProt G0GAP7 1-80, looked up, YeeD of Spirochaeta thermophila, residues 1-80, UniProt G0GAP7, with E48A; source: E. coli C41(DE3), purified (Ni-NTA, Superdex 200)) MANYQVSKEIDVRGEVCPIPDVEAKRAVQSANDGEIILVRIDYPLSKARIPETVKKLGSEVLEIEEAAPGEWNIYIKVKK: 17000
- StYeeD(Y43A), His6-tagged (natural protein, Spirochaeta thermophila, UniProt G0GAP7 1-80, looked up, YeeD of Spirochaeta thermophila, residues 1-80, UniProt G0GAP7, with Y43A; source: E. coli C41(DE3), purified (Ni-NTA, Superdex 200)) MANYQVSKEIDVRGEVCPIPDVEAKRAVQSANDGEIILVRIDAPLSKERIPETVKKLGSEVLEIEEAAPGEWNIYIKVKK: 8200
